This collection of values is drawn from PubChem BioAssay (Tox21).

experiment: qHTS assay to identify small molecule agonists of the endoplasmic reticulum stress response signaling pathway (AID 1159516); details: ESRE-bla HeLa, ER stress beta-lactamase reporter, 5 h; series mostly up to 61 µM
Records with an inconclusive call do not appear. Activity calls are given as the source filed them. The call rests on the fitted dose curve; in most records, active means well fitted activation curve with a large enough effect in the signal ratio in the repeat runs (not every such curve was filed as active); inconclusive means weak or mixed curves, or effect the other way; inactive means flat fitted curve, though single readings scatter; the % refers to the signal ratio.
measured.parameter: activation

Q. Entry under review: "CCCCCCC(=O)CCCCCC/C=C/C[C@@H](O)[C@H](O)[C@@](N)(CO)C(=O)O" . Reported activation?
A. inactive

Q. Need activation of "CC(C)(C)C(=O)Cl" , thanks.
A. inactive

Q. Entry under review: CCOC(=O)C(Cl)Cc1cc(-n2nc(C)n(C(F)F)c2=O)c(F)cc1Cl (stereo not given) . Reported activation?
A. inactive

Q. // activation lookup, key: CN1C(=O)COc2c(C(=O)NC3CN4CCC3CC4)cc(Cl)cc21 (stereo not given)
A. inactive

Now take the following compound into account.
Q. Sample ClC1=C(Cl)C2(Cl)C(CBr)CC1(Cl)C2(Cl)Cl (stereo not given) — what was its activation?
A. inactive
